test system: PPARa:RXRa (NR concentration 270 nM, RXRa partner concentration 90 nM); test: PBM binding z-score (relative to random genomic background probes); higher = stronger binding; sequences stand for … in GC…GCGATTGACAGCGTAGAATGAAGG
reportedMetric: PBM binding z-score
The response must contain the number and no unit.

TGAATGAGGTTAAAGATCAGGGACCGTGGCGTCG yielded PBM binding z-score of 4.71

So for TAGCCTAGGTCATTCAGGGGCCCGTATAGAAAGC , the logged PBM binding z-score turned out to be 3.52

----------
test system: PPARa:RXRa (NR concentration 270 nM, RXRa partner concentration 90 nM); assay: PBM binding z-score (relative to random genomic background probes); higher = stronger binding; sequences stand for … in GC…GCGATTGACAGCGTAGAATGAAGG
reportedMetric: PBM binding z-score

So for TGTCAAAGTTCCAAGGTAACGTAAGTATCCACAC , the logged PBM binding z-score turned out to be 0.321

// field: PBM binding z-score; key: ACTAGTTGGTCTGCTGAGGTCACACACAATTCGG ; value = 3.39

Form field PBM binding z-score, entry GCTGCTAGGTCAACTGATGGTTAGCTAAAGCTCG : 3.58

PBM binding z-score for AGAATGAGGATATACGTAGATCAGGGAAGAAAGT is -0.509

The sequence identified as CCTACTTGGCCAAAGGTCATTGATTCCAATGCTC registered its PBM binding z-score at 5.78

----------
The entries below come with measured PBM binding z-score values attached.
system: VDR:RXRa (NR concentration 270 nM, RXRa partner concentration 90 nM); test: PBM binding z-score (relative to random genomic background probes); higher = stronger binding; sequences stand for … in GC…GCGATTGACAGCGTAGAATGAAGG
A bare number is all that is needed in reply.

The measured PBM binding z-score associated with CTAGACAGGTGAAAGGTAACTCAGTCTGGTACGC reads 0.828

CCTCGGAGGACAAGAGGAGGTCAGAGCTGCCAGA yielded PBM binding z-score of 1.48

Record summary for CATACTAGGTCAAGAGGTCAAAGTCCGCTTCCCG : reported PBM binding z-score = 6.01

----------
test system: PPARg:RXRa 270nM:90nM, anti-RXR (NR concentration 270 nM, RXRa partner concentration 90 nM); assay: PBM binding z-score (relative to random genomic background probes); higher = stronger binding; sequences stand for … in GC…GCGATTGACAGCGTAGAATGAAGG
reportedMetric: PBM binding z-score

Record excerpt, results attached:
| sequenceString | valueReported |
| --- | --- |
| CCTACCGGGCCAAAAAGGTCATTGATGCCGATAA | 3 |
| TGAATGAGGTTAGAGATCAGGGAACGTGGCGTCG | 4.06 |
| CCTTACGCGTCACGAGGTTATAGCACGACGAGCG | 0.331 |
| TCGAGTAAGTTAGTCGGGGCATTCAGCCAACATA | 0.158 |
| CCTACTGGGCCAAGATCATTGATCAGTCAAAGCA | 0.483 |
| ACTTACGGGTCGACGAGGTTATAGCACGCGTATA | 1.22 |
| CCTTACGGGTCACAGACAGGTTATAGCATTTGGA | 5.16 |
| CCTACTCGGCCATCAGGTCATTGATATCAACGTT | 1.62 |
| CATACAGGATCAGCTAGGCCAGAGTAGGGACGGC | -0.422 |
| TCGAGTAGGTTAGTCGAGGCATTCAGCCAACATA | 0.522 |

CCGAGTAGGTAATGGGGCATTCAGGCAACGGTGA yielded PBM binding z-score of 4.63

----------
test system: PPARg:RXRa 30nM:10nM, anti-RXR (NR concentration 30 nM, RXRa partner concentration 10 nM); experiment: PBM binding z-score (relative to random genomic background probes); higher = stronger binding; sequences stand for … in GC…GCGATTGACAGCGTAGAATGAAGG
reportedMetric: PBM binding z-score
In your answer, state the number alone without any accompanying words.

| sequenceString | PBM binding z-score |
| --- | --- |
| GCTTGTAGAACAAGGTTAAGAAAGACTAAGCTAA | 0.36 |
| CCTAGTTGGTCAAGATCACACACGCTATAGGTAC | 0.398 |
| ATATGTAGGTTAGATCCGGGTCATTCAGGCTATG | 1.53 |

Log: PPARg:RXRa 30nM:10nM, anti-RXR (NR concentration 30 nM, RXRa partner concentration 10 nM), sequence ACTAGTTGGTCAGCTGAGGTCACAAACAATTCGG , PBM binding z-score = 0.167

The observed PBM binding z-score for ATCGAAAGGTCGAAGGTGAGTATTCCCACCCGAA when tested with PPARg:RXRa 30nM:10nM, anti-RXR (NR concentration 30 nM, RXRa partner concentration 10 nM) stands at 1.99

Item GATACAGGGTCCAGGCCAGAGTACGCGTATTGAT was tested on PPARg:RXRa 30nM:10nM, anti-RXR (NR concentration 30 nM, RXRa partner concentration 10 nM); the reported PBM binding z-score is -0.488

// returns PBM binding z-score for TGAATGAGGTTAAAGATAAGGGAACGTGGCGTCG with PPARg:RXRa 30nM:10nM, anti-RXR (NR concentration 30 nM, RXRa partner concentration 10 nM); value = 1.97

Assay PPARg:RXRa 30nM:10nM, anti-RXR (NR concentration 30 nM, RXRa partner concentration 10 nM), sample CCTACTGGGCCTAGGTCATTGATCAGTCAAAGCA , PBM binding z-score read: -0.181

Here TATACAGGGCCAAAGGCCAGAGTACGAATGTCGA was tested on PPARg:RXRa 30nM:10nM, anti-RXR (NR concentration 30 nM, RXRa partner concentration 10 nM), and its PBM binding z-score came to 2.62

# CGAACTAGGTCAGAACAGGGCAGTGAAGGATGAT with PPARg:RXRa 30nM:10nM, anti-RXR (NR concentration 30 nM, RXRa partner concentration 10 nM): PBM binding z-score is 1.73

Readout PBM binding z-score for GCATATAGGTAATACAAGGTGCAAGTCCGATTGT , test system PPARg:RXRa 30nM:10nM, anti-RXR (NR concentration 30 nM, RXRa partner concentration 10 nM), was 0.152

With PPARg:RXRa 30nM:10nM, anti-RXR (NR concentration 30 nM, RXRa partner concentration 10 nM) as the test system, AGAATGAGGATACCAAAGATCAGGGAAACGCTTG showed PBM binding z-score of 0.225

----------
tested on: LXRb homodimer (NR concentration 270 nM); test: PBM binding z-score (relative to random genomic background probes); higher = stronger binding; sequences stand for … in GC…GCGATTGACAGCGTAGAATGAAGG
reportedMetric: PBM binding z-score

Some sequences with recorded PBM binding z-score:
| sequenceString | PBM binding z-score |
| --- | --- |
| TCGAGTAGGTTAGTCAGGGCATTCAGCCAACATA | -0.771 |
| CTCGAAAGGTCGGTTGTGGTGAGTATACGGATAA | 0.416 |

response.value for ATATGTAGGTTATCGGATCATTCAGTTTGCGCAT (field: PBM binding z-score) = 0.803

Measured PBM binding z-score of ATCTCTAGGTAAAAGTTCTGTGAATCCCGAGGAT : 0.463

Short answer for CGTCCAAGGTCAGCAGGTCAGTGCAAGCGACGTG : PBM binding z-score was -0.131

Per the record, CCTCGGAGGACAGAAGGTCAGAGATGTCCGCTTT has PBM binding z-score of -0.867

Entry CCAGACAGGTGAGAAGGTTACTCAGCCTCGATTA — recorded PBM binding z-score = -0.277

CCTCGGAGGACAGAAGGTCAGAGGTGTCCGCTTT yielded PBM binding z-score of -0.636

Field PBM binding z-score (entry CCTCGGAGGACAACAGAAGGTCAGAGCTGCCAGA ) reads -0.67

Please fill in: PBM binding z-score reported for CCAGACAGGTGAAAGGTAACTCATTCTGGTACGC = -0.276

Recorded PBM binding z-score (sequence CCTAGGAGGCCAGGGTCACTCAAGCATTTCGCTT ): -1.15

The sequence listed as TCGAGTAGGTTACTAATGGGGCATTCAGCTTTCT has a reported PBM binding z-score of -0.917

Kindly note the recorded PBM binding z-score for CGTGCAAGGTCAATGCTAGGTCAGTGAAAGCATT , which is 0.212

----------
system: PPARg:RXRa 30nM:10nM, anti-RXR (NR concentration 30 nM, RXRa partner concentration 10 nM); experiment: PBM binding z-score (relative to random genomic background probes); higher = stronger binding; sequences stand for … in GC…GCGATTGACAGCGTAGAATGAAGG
Label 1 when PBM binding z-score >= 0.3; otherwise 0.

Record excerpt, results attached:
| sequenceString | testedTarget | assignedLabel |
| --- | --- | --- |
| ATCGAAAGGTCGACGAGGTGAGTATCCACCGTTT | PPARg:RXRa 30nM:10nM, anti-RXR (NR concentration 30 nM, RXRa partner concentration 10 nM) | 1 |
| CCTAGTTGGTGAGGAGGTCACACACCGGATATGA | PPARg:RXRa 30nM:10nM, anti-RXR (NR concentration 30 nM, RXRa partner concentration 10 nM) | 1 |
| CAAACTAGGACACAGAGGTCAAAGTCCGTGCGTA | PPARg:RXRa 30nM:10nM, anti-RXR (NR concentration 30 nM, RXRa partner concentration 10 nM) | 1 |
| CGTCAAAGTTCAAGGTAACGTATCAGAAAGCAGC | PPARg:RXRa 30nM:10nM, anti-RXR (NR concentration 30 nM, RXRa partner concentration 10 nM) | 1 |
| CCTACTGGGCCAAAAAGGTCATAGATGCCGATAA | PPARg:RXRa 30nM:10nM, anti-RXR (NR concentration 30 nM, RXRa partner concentration 10 nM) | 1 |

Answer whether PBM binding z-score of TAGCCTAGGTCATGCGGGCCAGTATTGTGTCGGC is greater than or equal to 0.3. 0

Item TAACCAAGGTGAAAGGTCGTTGATGCACGCCTTG with PBM binding z-score of 0.3 or above? 1
